Each entry below carries its recorded activation at 1 µM.
# experimental target: UniProt:P35348
# Sequence (P35348 whole entry): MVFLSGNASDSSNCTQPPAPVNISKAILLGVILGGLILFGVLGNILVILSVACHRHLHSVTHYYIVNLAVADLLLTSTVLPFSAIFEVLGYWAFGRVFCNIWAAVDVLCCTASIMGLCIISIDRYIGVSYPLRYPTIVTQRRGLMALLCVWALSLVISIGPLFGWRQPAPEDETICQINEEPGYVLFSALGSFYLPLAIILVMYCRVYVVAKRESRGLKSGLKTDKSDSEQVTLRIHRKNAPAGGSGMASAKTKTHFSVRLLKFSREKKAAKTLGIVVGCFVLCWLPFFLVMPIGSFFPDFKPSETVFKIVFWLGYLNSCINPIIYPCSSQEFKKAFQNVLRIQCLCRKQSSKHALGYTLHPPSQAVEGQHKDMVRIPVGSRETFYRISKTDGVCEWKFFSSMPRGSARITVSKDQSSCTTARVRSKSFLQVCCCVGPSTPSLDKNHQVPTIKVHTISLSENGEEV
# procedure text: Cellular functional assay, adrenergic α1A receptor (agonism/antagonism)
# Type: cell-based
# experimental context: agonist effect, percent of control specific agonist response; compounds tested at 1×10^−6M; read-out: α1A -ag [%]
Give the number; % is assumed, so skip it.

Completed entries (count: 3):
O=S(=O)(NCCCCN1CCN(c2noc3ccccc23)CC1)c1c[nH]c2ncccc12 [Compound 89]    -1
Cc1c(S(=O)(=O)NCCCCN2CCC(c3noc4cc(F)ccc34)CC2)sc2ccc(F)cc12 [Compound 101]    0
O=S(=O)(NCCCCN1CCN(c2nsc3ccccc23)CC1)c1cc2ccccc2s1 [Compound 239]    -1

Here O=S(=O)(NCCCCN1CCN(c2noc3ccccc23)CC1)c1ccc2ccccc2c1 [Compound 14] was tested on UniProt:P35348, and its activation at 1 µM came to 0

The reported UniProt:P35348 activation at 1 µM of O=S(=O)(NCCCN1CCC(c2noc3cc(F)ccc23)CC1)c1ccc(F)c(Cl)c1 [Compound 331] is 1

Entry O=c1[nH]c2ccc(S(=O)(=O)NCCCCN3CCN(c4noc5ccccc45)CC3)cc2o1 [Compound 16] ; assay system UniProt:P35348; activation at 1 µM recorded at 0

With UniProt:P35348 as the test system, Cc1cccc(S(=O)(=O)NCCCN2CCC(c3noc4cc(F)ccc34)CC2)c1 [Compound 22] showed activation at 1 µM of 0

activation at 1 µM on UniProt:P35348 for Cc1c(S(=O)(=O)NCCCCN2CCN(c3noc4ccccc34)CC2)sc2ccc(F)cc12 [Compound 81] is 1

====

Recorded α1 [%], one value per entry.
# Test system: adrenergic α1 receptor
# procedure text: Binding assay α1 (non-selective), [3H]prazosin, rat cerebral cortex
# experimental context: percent inhibition of control specific binding; compounds tested at 1×10^−6 M
# number only, unit % dropped from output

Cc1[nH]c2ccc(Cl)cc2c1C1=CCN(CCNS(=O)(=O)c2cccc(O)c2)CC1    23

Quick note, α1 [%] for O=S(=O)(NCCCN1CCC(c2noc3cc(F)ccc23)CC1)c1cnc2ccccn12 landed at 101

The recorded α1 [%] for Cc1cccc(S(=O)(=O)NCCCN2CCN(c3cccc4c3OCCO4)CC2)c1 is 88

Kindly note the recorded α1 [%] for O=S(=O)(NCCCN1CCC(c2noc3cc(F)ccc23)CC1)c1cccc2ccccc12 , which is 99

====

# experimental target: serotoninergic 5-HT6 receptor (Homo sapiens, UniProt P50406)
# Sequence (P50406 whole entry): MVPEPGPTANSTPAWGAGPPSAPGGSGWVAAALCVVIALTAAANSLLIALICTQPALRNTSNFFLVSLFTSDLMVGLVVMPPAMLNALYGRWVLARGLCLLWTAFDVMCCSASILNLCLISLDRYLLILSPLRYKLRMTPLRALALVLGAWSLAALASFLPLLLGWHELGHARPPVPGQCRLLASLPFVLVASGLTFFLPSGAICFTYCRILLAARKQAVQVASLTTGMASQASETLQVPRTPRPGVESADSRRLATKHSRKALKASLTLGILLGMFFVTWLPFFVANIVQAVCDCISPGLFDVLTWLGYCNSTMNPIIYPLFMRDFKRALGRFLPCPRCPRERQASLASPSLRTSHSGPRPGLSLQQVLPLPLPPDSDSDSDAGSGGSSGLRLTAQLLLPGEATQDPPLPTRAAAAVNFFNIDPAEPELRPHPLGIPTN
# procedure text: Cellular functional assay, serotoninergic 5-HT6 receptor (agonism/antagonism)
# Format: cell-based
# experimental context: read-out: 5-HT6-antag. [%]
inhibition at 1 µM values for the compounds below.
Hi! Could you send only the number? It should be in %, unit omitted.

Before answering, review these 8 worked examples.
O=S(=O)(NCCCCN1CCC(c2noc3cc(F)ccc23)CC1)c1ccc(Br)cc1 [Compound 298]    89
O=S(=O)(NCCCCN1CCN(c2nsc3ccccc23)CC1)c1cc2ccccc2s1 [Compound 239]    70
O=S(=O)(NCCCCN1CCN(c2noc3ccccc23)CC1)c1ccc(-c2ccccc2)cc1 [Compound 283]    64
O=S(=O)(NCCCCN1CCN(c2noc3ccccc23)CC1)c1ccc2ccccc2c1 [Compound 14]    69
O=S(=O)(NCCCN1CCC(c2noc3cc(F)ccc23)CC1)c1ccc2cc(Cl)ccc2c1 [Compound 98]    79
O=S(=O)(NCCCN1CCC(c2noc3cc(F)ccc23)CC1)c1ccc(F)c(Cl)c1 [Compound 331]    98
Cc1c(S(=O)(=O)NCCCCN2CCN(c3noc4ccccc34)CC2)sc2ccc(F)cc12 [Compound 81]    88
O=S(=O)(NCCN1CCC(c2noc3cc(F)ccc23)CC1)c1ccc2ccccc2c1 [Compound 24]    9

// O=S(=O)(NCCCCN1CCN(c2nsc3ccccc23)CC1)c1ccc2cc(Cl)ccc2c1 [Compound 61] : inhibition at 1 µM value = 72

# compound O=S(=O)(NCCCCN1CCC(c2noc3cc(F)ccc23)CC1)c1csc2ccccc12 [Compound 313] ; its inhibition at 1 µM = 91

For this compound ( O=S(=O)(NCCCCN1CCC(c2noc3cc(F)ccc23)CC1)c1cc2ccccc2s1 [Compound 312] ), measured inhibition at 1 µM is 76

Field inhibition at 1 µM (entry O=S(=O)(NCCCN1CCN(c2nsc3ccccc23)CC1)c1cccc2ccccc12 [Compound 5] ) reads 18

Query Cc1c(S(=O)(=O)NCCCN2CCC(c3noc4cc(F)ccc34)CC2)sc2ccc(F)cc12 [Compound 102] yields inhibition at 1 µM of 82

Form field inhibition at 1 µM, entry O=c1[nH]c2ccc(S(=O)(=O)NCCN3CCN(c4nsc5ccccc45)CC3)cc2o1 [Compound 12] : -2

Lookup result for Cc1cccc(S(=O)(=O)NCCCN2CCC(c3noc4cc(F)ccc34)CC2)c1 [Compound 22] ; measured inhibition at 1 µM: 82

// Cc1cccc(S(=O)(=O)NCCCN2CCN(c3nsc4ccccc34)CC2)c1 [Compound 7] : inhibition at 1 µM value = 65

Measured inhibition at 1 µM, O=S(=O)(NCCCCN1CCC(c2noc3cc(F)ccc23)CC1)c1ccc2cc(Cl)ccc2c1 [Compound 97] : 95

====

# experimental target: serotoninergic 5-HT7 receptor (Homo sapiens, UniProt P34969)
# Sequence (P34969 whole entry): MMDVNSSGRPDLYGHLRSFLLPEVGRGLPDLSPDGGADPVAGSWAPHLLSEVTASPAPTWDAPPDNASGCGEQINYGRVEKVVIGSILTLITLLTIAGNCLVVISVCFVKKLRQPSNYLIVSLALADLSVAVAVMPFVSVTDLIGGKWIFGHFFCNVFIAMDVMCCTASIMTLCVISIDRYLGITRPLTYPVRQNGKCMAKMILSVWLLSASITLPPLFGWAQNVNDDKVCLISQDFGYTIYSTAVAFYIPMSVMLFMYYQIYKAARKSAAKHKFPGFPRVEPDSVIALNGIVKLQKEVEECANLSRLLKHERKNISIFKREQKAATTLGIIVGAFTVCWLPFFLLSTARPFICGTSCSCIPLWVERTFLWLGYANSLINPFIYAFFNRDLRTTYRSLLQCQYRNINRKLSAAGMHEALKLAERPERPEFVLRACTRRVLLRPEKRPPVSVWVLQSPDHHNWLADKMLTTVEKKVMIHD
# procedure text: Binding assay 5-HT7 (h), [3H]LSD, CHO cells
# Set-up: expressed in transfected cells; host or cells: CHO cells
# experimental context: read-out: 5-HT7
Reported inhibition at 1 µM by item:
Form entry: value (%) — number only.

# annotated cases, reported inhibition at 1 µM shown
O=S(=O)(NCCCCN1CCC(c2noc3cc(F)ccc23)CC1)c1cc2ccccc2o1    97
O=S(=O)(NCCCN1CCN(c2nsc3ccccc23)CC1)c1ccc(Br)cc1    99
COc1cccc(S(=O)(=O)NCCCCN2CCN(c3nsc4ccccc34)CC2)c1    89
O=S(=O)(NCCCCN1CCN(c2cccc3c2OCCO3)CC1)c1cc2ccc(Cl)cc2s1    91
O=S(=O)(NCCCN1CCC(c2noc3cc(F)ccc23)CC1)c1cccc2ccccc12    101

For the next question, use this compound.
// O=C1COc2c(cccc2N2CCN(CCCCNS(=O)(=O)c3cccc(Cl)c3)CC2)N1 : inhibition at 1 µM value = 85

====

# experimental target: dopaminergic D2 receptor (Homo sapiens, UniProt P14416)
# Sequence (P14416 1-414 isoform P14416-2): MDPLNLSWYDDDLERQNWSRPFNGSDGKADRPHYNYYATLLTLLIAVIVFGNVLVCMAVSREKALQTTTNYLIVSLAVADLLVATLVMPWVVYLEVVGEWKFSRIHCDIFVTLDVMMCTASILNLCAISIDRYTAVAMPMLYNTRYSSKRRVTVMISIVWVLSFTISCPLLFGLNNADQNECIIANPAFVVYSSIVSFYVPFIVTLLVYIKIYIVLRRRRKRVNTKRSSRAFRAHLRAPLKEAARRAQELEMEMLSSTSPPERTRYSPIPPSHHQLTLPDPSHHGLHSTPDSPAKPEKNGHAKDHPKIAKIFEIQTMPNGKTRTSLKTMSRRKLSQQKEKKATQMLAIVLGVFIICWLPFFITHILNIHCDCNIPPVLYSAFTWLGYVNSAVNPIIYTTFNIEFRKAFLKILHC
# procedure text: Binding assay D2S (h), [3H]methyl-spiperone, HEK-293 cells
# Design: expressed in transfected cells; host or cells: HEK-293 cells
# experimental context: read-out: D2 [%]
# Experimental: The specific ligand binding to the receptors is defined as the difference between the total binding and the nonspecific binding determined in the presence of an excess of so unlabelled ligand. The specific Ligand binding to the receptor is defined as the difference between total and non-specific binding determined in the presence of an excess of unlabelled ligand. The compounds were tested at a concentration of 1×10^−6 M, and scintillation counting was the method of detection of ligand binding.
Entries and their inhibition at 1 µM values follow.
Your answer should be a plain number; it is taken to be in %.

Illustrative cases are given below, each with its answer.
O=S(=O)(NCCCCN1CCN(c2noc3ccccc23)CC1)c1ccc2cn[nH]c2c1    99
O=S(=O)(NCCCCN1CCN(c2nsc3ccccc23)CC1)c1ccc(OC(F)(F)F)cc1    99
O=S(=O)(NCCCN1CCN(c2nsc3ccccc23)CC1)c1cc2ccc(Cl)cc2s1    87

Reported inhibition at 1 µM of Cc1c(S(=O)(=O)NCCCN2CCC(c3noc4cc(F)ccc34)CC2)sc2ccc(Cl)cc12 : 104

response.value for O=S(=O)(NCCCCN1CCN(c2cccc3c2OCCO3)CC1)c1cccc2ccccc12 (field: inhibition at 1 µM) = 75

Data point: N#Cc1cccc(S(=O)(=O)NCCCN2CCN(c3nsc4ccccc34)CC2)c1 ; inhibition at 1 µM = 93

Quick note, inhibition at 1 µM for O=S(=O)(NCCCN1CCN(c2nsc3ccccc23)CC1)c1csc2ccccc12 landed at 98

Reported inhibition at 1 µM ( O=S(=O)(NCCCCN1CCN(c2noc3ccccc23)CC1)c1cccc(F)c1 ) = 87

====

# experimental target: serotoninergic receptor 5-HT2C (Homo sapiens)
# Construct: expressed in transfected cells; host or cells: HEK-293 cells
# Sequence (P28335 33-458): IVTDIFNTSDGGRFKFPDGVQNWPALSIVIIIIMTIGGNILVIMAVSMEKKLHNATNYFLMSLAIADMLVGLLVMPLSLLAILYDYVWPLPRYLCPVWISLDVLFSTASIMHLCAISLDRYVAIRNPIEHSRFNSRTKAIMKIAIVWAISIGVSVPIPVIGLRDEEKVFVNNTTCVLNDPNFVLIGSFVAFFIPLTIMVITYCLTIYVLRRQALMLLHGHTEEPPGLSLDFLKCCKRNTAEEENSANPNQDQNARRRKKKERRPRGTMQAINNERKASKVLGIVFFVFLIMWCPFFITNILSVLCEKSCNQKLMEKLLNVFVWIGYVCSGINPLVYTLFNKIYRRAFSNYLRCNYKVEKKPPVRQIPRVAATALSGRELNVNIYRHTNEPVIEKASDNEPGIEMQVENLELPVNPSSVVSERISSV
# procedure text: Binding assay 5-HT2C (h), [3H]mesulergine, HEK-293 cells
# experimental context: read-out: 5-HT2C [%]
inhibition at 1 µM for assorted compounds
Output spec: scalar in %, unitless text.

O=S(=O)(NCCCN1CCC(c2noc3cc(F)ccc23)CC1)c1ccc2cc(Cl)ccc2c1    91
O=S(=O)(NCCCCN1CCN(c2noc3ccccc23)CC1)c1cc2ccc(Cl)cc2s1    32
COc1cccc(S(=O)(=O)NCCCCN2CCC(c3noc4cc(F)ccc34)CC2)c1    49
O=S(=O)(NCCCCN1CCN(c2cccc3[nH]ccc23)CC1)c1cccc(Cl)c1    10
O=S(=O)(NCCCN1CCC(c2noc3cc(F)ccc23)CC1)c1ccc2ccccc2c1    87
O=S(=O)(NCCCN1CCC(c2noc3cc(F)ccc23)CC1)c1cc2ccc(Cl)cc2s1    99
O=S(=O)(NCCCCN1CCN(c2noc3ccccc23)CC1)c1cccc2ccccc12    34
O=S(=O)(NCCCCN1CCN(c2nsc3ccccc23)CC1)c1cccc2scnc12    81
O=c1[nH]c2cccc(N3CCN(CCCNS(=O)(=O)c4cccc5ccccc45)CC3)c2[nH]1    9
O=c1[nH]c2ccc(S(=O)(=O)NCCCCN3CCN(c4noc5ccccc45)CC3)cc2o1    53

Memo: Cc1[nH]c2ccc(Cl)cc2c1C1=CCN(CCCNS(=O)(=O)c2cccc(O)c2)CC1 , reported inhibition at 1 µM: 67

inhibition at 1 µM recorded for this compound, Cc1c(S(=O)(=O)NCCCCN2CCC(c3noc4cc(F)ccc34)CC2)sc2ccc(F)cc12 , is 80

Reported inhibition at 1 µM of Cc1cccc(S(=O)(=O)NCCCCN2CCN(c3nsc4ccccc34)CC2)c1 : 77

Record O=c1[nH]c2cccc(N3CCN(CCCCNS(=O)(=O)c4ccc5ccccc5c4)CC3)c2[nH]1 . Reported inhibition at 1 µM: 7

Item: O=c1[nH]c2cccc(N3CCN(CCCCNS(=O)(=O)c4cccc5ccccc45)CC3)c2[nH]1 | inhibition at 1 µM: 19

// recorded inhibition at 1 µM for O=S(=O)(NCCCCN1CCC(c2noc3cc(F)ccc23)CC1)c1csc2ccccc12 : 59

Recorded result, O=S(=O)(NCCCCN1CCN(c2noc3ccccc23)CC1)c1ccc(-c2ccccc2)cc1 , inhibition at 1 µM: 80

Lab book: inhibition at 1 µM of O=S(=O)(NCCCCN1CCN(c2nsc3ccccc23)CC1)c1ccc2ccccc2c1 noted as 89

# inhibition at 1 µM of O=S(=O)(NCCCN1CCC(c2noc3cc(F)ccc23)CC1)c1cnc2ccccn12 = 83

Please fill in: inhibition at 1 µM reported for O=S(=O)(NCCCN1CCC(c2noc3cc(F)ccc23)CC1)c1ccc(F)c(Cl)c1 = 82
